Some molecules, each annotated with its measured pA2.
# assay_target: Adrenergic receptor alpha-1 (Rattus norvegicus, UniProt P15823+P23944+P43140)
# Sequence (P15823 whole entry): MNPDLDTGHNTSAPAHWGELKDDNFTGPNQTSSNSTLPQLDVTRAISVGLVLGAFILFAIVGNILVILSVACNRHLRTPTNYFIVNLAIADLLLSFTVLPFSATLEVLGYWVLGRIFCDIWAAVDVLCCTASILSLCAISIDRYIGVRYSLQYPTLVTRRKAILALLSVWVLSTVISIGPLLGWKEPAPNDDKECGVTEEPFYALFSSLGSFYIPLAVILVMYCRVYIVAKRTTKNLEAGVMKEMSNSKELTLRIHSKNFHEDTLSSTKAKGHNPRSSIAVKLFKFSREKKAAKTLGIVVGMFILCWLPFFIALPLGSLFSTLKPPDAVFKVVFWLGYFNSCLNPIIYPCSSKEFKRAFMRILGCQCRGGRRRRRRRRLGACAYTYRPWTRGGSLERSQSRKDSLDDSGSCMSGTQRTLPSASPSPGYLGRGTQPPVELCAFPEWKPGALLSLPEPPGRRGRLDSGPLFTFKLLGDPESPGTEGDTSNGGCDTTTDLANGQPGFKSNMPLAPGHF
# Sequence (P23944 whole entry): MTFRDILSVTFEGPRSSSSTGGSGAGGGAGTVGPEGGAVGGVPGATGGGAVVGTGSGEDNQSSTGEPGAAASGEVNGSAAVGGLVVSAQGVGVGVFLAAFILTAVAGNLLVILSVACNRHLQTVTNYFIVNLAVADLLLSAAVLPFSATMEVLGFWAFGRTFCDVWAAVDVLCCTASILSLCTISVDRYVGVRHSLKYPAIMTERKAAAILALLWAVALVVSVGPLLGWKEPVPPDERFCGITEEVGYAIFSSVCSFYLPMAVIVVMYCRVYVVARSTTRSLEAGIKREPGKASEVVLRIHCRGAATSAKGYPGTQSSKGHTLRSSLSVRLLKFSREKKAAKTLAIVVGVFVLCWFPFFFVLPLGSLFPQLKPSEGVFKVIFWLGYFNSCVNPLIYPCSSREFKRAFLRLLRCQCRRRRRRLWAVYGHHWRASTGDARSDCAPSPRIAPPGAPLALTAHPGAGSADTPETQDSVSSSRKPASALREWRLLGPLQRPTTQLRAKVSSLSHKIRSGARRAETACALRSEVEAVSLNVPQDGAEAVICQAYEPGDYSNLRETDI
# Sequence (P43140 whole entry): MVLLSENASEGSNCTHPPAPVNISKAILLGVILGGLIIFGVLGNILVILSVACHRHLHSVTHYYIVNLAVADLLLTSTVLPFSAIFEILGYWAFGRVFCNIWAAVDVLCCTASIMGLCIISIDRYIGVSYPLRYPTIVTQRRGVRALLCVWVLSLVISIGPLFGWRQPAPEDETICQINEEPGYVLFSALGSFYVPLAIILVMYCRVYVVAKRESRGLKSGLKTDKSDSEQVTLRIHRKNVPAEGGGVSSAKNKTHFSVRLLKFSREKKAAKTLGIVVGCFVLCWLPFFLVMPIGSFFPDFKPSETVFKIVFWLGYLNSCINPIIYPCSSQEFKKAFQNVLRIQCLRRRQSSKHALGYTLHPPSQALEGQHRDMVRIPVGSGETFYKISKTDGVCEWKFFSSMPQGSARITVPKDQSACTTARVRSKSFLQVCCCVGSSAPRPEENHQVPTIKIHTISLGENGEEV
# assay_name: Tested for Alpha adrenergic receptor antagonistic activity on isolated rat vas deferens
# Type: functional, tissue-based
measure: pA2

COc1ccc(OC)c(C2CNCCO2)c1 (stereo not given) :: 3.4
COc1ccc(OC)c(C(O)CN)c1 (stereo not given) :: 4.04
COc1ccc(OC)c(C2OCCNC2C)c1 (stereo not given) :: 3.48
COc1ccc(OC)c(C2CN(C)CCO2)c1 (stereo not given) :: 3.61
COc1ccc(OC)c(C2CN(C(C)C)CCO2)c1 (stereo not given) :: 3.14

# credit: ChEMBL document CHEMBL1122331
